Origin of the recorded values: patent US20070128217A1

The entries below are paired with their reported Binding of serum SARS-green to linear peptides of protein X1 of SARS-CoV Urbani.
System: antibodies in sera from SARS patients (sera 1a, 1b, 2, 6, 37, 62, London, SARS-yellow, SARS-green)
Type: binding, human
// no unit, no text: just the number

Field: example entries. Status: answers known.
KGFQFICNLLLLFVT | 0.2
WKCKSKNPLLYDANY | 0.4
AQFLYLYALIYFLQC | 0.2

Then there is this sequence:
Note Binding of serum SARS-green to linear peptides of protein X1 of SARS-CoV Urbani for the sequence shown: DTIVVTEGDGISTPK
0.2
